FYI, the data here is from a melting point compilation (Tetko et al.; mined from patent text by program, amines drawn as free bases though some values may be those of a salt).

Quick reference: melting point of the listed items.

Compound: O=C(Oc1ccccc1N1c2ccccc2S(=O)(=O)c2ccccc21)c1ccccc1
melting point: 228 to 232 °C
--
Compound: Nc1c(F)c(N2CCNCC2)cc2c1c(=O)c(C(=O)O)cn2C1COC1
melting point: 244 to 246 °C
--
Compound: CCNC(=O)c1c(Cl)cccc1[Si](C)(C)C(C)(C)C
melting point: 140 to 142 °C
--
Compound: O=C(O)c1cc(=O)c2cc3c(c(CC(O)CO)c2o1)CCCC3 (stereo not given)
melting point: 217 to 218 °C
--
Compound: CN1C(=O)Cc2cc(C3=NNC(=O)C4CC34)ccc21 (stereo not given)
melting point: 265 to 267 °C
--
Compound: Cc1c(=O)n(Cc2ccccc2)c(=O)n2cc(C(=O)NCc3ccc(Cl)c(Cl)c3)sc12
melting point: 180 to 182 °C
--
Compound: CC(=O)OCC1OC(n2cnc3c(N)ncnc32)CC1O (stereo not given)
melting point: 150 to 152 °C
--
Compound: COc1cccc2cc(CNCCNC(=O)C34CCC(CC3=O)C4(C)C)oc12 (stereo not given)
melting point: 177 to 178 °C
--
Compound: Cc1cn(C2CCCCC2)c(=O)nc1NS(=O)(=O)c1ccc(N)cc1
melting point: 203 to 206 °C
--
Compound: c1ccc2cc(NC3=NCC4(CN5CCC4CC5)O3)ncc2c1 (stereo not given)
melting point: 196 to 200 °C

###

Compound: COc1ccc(Nc2ccccc2)c(NS(C)(=O)=O)c1
melting point: 109 to 111 °C

Compound: CCOC(=O)c1conc1-c1ccc(F)c(Cl)c1
melting point: 108 to 109 °C

Compound: CCOC(=O)Cc1csc2nc(C(=O)NCc3cccc(OC)c3)[nH]c(=O)c12
melting point: 169 to 171 °C

Compound: Cc1cc(-c2ccc(C(F)(F)F)cc2)nc2c(-c3nc(-c4ccc(S(N)(=O)=O)s4)no3)cnn12
melting point: 276 °C

Compound: COc1ccc(Cn2cc3nc(Cl)nc(Cl)c3n2)cc1
melting point: 108 to 109 °C

Compound: CN(SC1CCCCCCC1Cl)C(=O)Nc1ccc(Cl)c(Cl)c1 (stereo not given)
melting point: 90 to 91 °C

Compound: O=S1N=C(NCCCOc2cccc(CN3CCCCC3)c2)C(NCc2cccnc2)=N1 (stereo not given)
melting point: 140 to 143 °C

Compound: O=S1(=O)NC(c2cccc(F)c2)c2ccccc21 (single isomer, unassigned; (+))
melting point: 148 °C

Compound: COc1cc(NS(=O)(=O)CC(=O)c2ccccc2)c2c(c1)OC(C)C2 (stereo not given)
melting point: 143 to 145 °C

Compound: CCCc1cc(O)nc(-c2cccc(Oc3ccccc3Cl)n2)n1
melting point: 95.1 °C

Compound: CC(C)C[C@@H](CO)NC(=O)[C@H](Cc1c[nH]cn1)NC(=O)C(CNCCCc1ccccc1)Cc1cccc2ccccc12 (stereo not given in full)
melting point: 72 to 76 °C

Compound: Cc1c2c(c(C(O)c3ccc(C(C)C)cc3)c(C)c1NC(=O)OC(C)(C)C)OC(C)C2 (stereo not given)
melting point: 141 to 142 °C

Compound: CCOc1ccc(-c2ccc3c(c2)C=C(C(=O)Nc2ccc(CN(C)C4CCOCC4)cc2)CCS3(=O)=O)cc1Cl
melting point: 201 to 204 °C

Compound: COC(=O)C1N=c2c(ccc3c2=CC=N3)O1 (stereo not given)
melting point: 207 to 208 °C

Compound: CC(Nc1nc(NN)nc(Cl)c1-c1c(F)cccc1Cl)C(F)(F)F (stereo not given)
melting point: 120 to 122 °C

Compound: N#Cc1c(-c2cccc(N)c2)cc(-c2ccccc2O)nc1NC(=O)c1ccsc1
melting point: 257 to 260 °C

Compound: CC1CC2=C(CCC(Cc3ccc(O)cc3)C2)NC1=O (stereo not given)
melting point: 230 to 235 °C

Compound: O=C1C(=CO)COc2ccc(OCc3ccccc3)cc21
melting point: 82 to 85 °C

Compound: Cc1ccc2c(c1)CC(=O)c1cc(C)ccc1O2
melting point: 62 to 62.5 °C

Compound: Oc1c(C(Nc2ccc(F)cn2)c2ccccn2)ccc2cccnc12 (stereo not given)
melting point: 165 to 168 °C

###

Recorded endpoint: melting point

Compound: COc1cc(OC)c(C2CCN(C)C2CO)c(OC)c1 (configuration not stated)
Recorded endpoint: melting point
Recorded measurement: 82 to 85 °C

Compound: CC(=O)c1ccc2c(c1)S(=O)(=O)c1cc(C(C)=O)ccc1O2
Recorded endpoint: melting point
Recorded measurement: 219 to 220 °C

Compound: CCOC(=O)NN=C(c1ccc(Cl)cc1)c1ccc(OC(=O)CC)cc1
Recorded endpoint: melting point
Recorded measurement: 120 to 146 °C

Compound: Oc1cnccc1CCCOc1cccnc1Sc1cccc(Br)c1
Recorded endpoint: melting point
Recorded measurement: 169 to 171 °C

Compound: CSCOc1ccc(-c2coc3ccc(-c4nnc(C)o4)cc23)cc1
Recorded endpoint: melting point
Recorded measurement: 116 to 117 °C

Compound: CCOC(=O)Cn1ncc(-c2ccc(OC)cc2)c1-c1ccccc1
Recorded endpoint: melting point
Recorded measurement: 81 to 84 °C

Compound: COC(=O)[C@@H](NC(=O)OC(C)(C)C)[C@@H](S)c1ccccc1
Recorded endpoint: melting point
Recorded measurement: 76 to 77 °C

Compound: COC(=O)c1cc2c(cc1N)OCO2
Recorded endpoint: melting point
Recorded measurement: 107 to 108 °C

Compound: COc1ccc(C=Cc2ccc(C)c(Cl)c2)c(Cl)c1
Recorded endpoint: melting point
Recorded measurement: 77 to 79 °C

Compound: O=C(O)Cc1cnn(-c2ccc(Cl)cc2)c1-c1ccccc1
Recorded endpoint: melting point
Recorded measurement: 110 to 111 °C

Compound: COc1cc(C(=O)O)ccc1C(C)c1c[nH]c2ccc(C(=O)NCCC(C)C)cc12 (configuration not stated)
Recorded endpoint: melting point
Recorded measurement: 190 to 191 °C

Compound: CN(CCCCc1ccc(NC(=O)c2cccc3c(=O)c4ccccc4[nH]c23)cc1)Cc1ccc(F)cc1
Recorded endpoint: melting point
Recorded measurement: 151 °C

Compound: O=C(O)/C=C/C=C(c1ccc(Cl)cc1)c1ccc(Cl)cc1
Recorded endpoint: melting point
Recorded measurement: 213 to 215 °C

Compound: CCOc1ccc2c(OC(=O)C(F)(F)F)c3cc4ccccc4cc3c(OC(=O)C(F)(F)F)c2c1
Recorded endpoint: melting point
Recorded measurement: 165 to 170 °C

Compound: OCCCC#CC#Cc1ccccc1
Recorded endpoint: melting point
Recorded measurement: 50.9 to 51.6 °C

Compound: O=C1CCc2ccc(OCCCl)cc21
Recorded endpoint: melting point
Recorded measurement: 76 to 80 °C

Compound: CCOC(=O)C1=C(C(F)(F)F)Nc2n[nH]cc2C1c1ccc(OC)cc1 (configuration not stated)
Recorded endpoint: melting point
Recorded measurement: 159 to 161 °C

Compound: O=C(O)c1c[nH]c(Sc2cccc(Cl)c2)c1
Recorded endpoint: melting point
Recorded measurement: 134 to 137 °C

Compound: CCOC(=O)COc1ccc2cc(S(N)(=O)=O)sc2c1
Recorded endpoint: melting point
Recorded measurement: 182 to 184 °C

Compound: CCCOc1ccnc(CS(=O)c2nc3ccccc3[nH]2)c1C (configuration not stated)
Recorded endpoint: melting point
Recorded measurement: 81 to 83 °C

Compound: O=C(NC(=O)C(Cl)CCl)Nc1cccc(Cl)c1Cl (configuration not stated)
Recorded endpoint: melting point
Recorded measurement: 195 to 196 °C

Compound: CCOC(=O)C=Cc1cccc(Cl)c1Cl
Recorded endpoint: melting point
Recorded measurement: 69 to 70 °C

###

Quick reference: melting point of the listed items.

Compound: CC(=O)N(O)CCOc1ccc(-c2ccc(C#N)cc2)cc1
melting point: 174 to 175 °C
//
Compound: CCOc1ccc(-n2cnnc2C(F)(F)F)cc1
melting point: 70 °C
//
Compound: Cc1cccc(Nc2ccc(Nc3ncnc4cc(-c5ccccc5)sc34)cc2)c1
melting point: 170 to 171 °C
//
Compound: CCOC(=O)C1=C(C)NC(=NC#N)NC1c1cccc([N+](=O)[O-])c1 (centres undefined)
melting point: 250 to 252 °C
//
Compound: NC(=O)NC(Cc1c[nH]c2ccccc12)C(=O)NCc1cc(C(F)(F)F)cc(C(F)(F)F)c1 (centres undefined)
melting point: 210 to 212 °C
//
Compound: CCOC(=O)C=Cc1cnc(Nc2ccccc2)nc1N
melting point: 190 to 192 °C
//
Compound: NS(=O)(=O)c1ccc(N2CC(=O)N(C3CCCCC3)C2=O)cc1
melting point: 237 to 238 °C
//
Compound: O=[N+]([O-])c1cnn2cnc3ccccc3c12
melting point: 177 to 178 °C
//
Compound: O=C1c2cccc(O)c2C(=O)N1CC(=O)N1c2ccccc2N(Cc2ccccc2)C(=O)[C@H]2CCC[C@H]21 (relative stereo)
melting point: 272 °C
